Target: α-1A adrenoceptor (dog prostate)
Construct: from tissue; host or cells: canine prostate strips
Sequence (P35348 whole entry): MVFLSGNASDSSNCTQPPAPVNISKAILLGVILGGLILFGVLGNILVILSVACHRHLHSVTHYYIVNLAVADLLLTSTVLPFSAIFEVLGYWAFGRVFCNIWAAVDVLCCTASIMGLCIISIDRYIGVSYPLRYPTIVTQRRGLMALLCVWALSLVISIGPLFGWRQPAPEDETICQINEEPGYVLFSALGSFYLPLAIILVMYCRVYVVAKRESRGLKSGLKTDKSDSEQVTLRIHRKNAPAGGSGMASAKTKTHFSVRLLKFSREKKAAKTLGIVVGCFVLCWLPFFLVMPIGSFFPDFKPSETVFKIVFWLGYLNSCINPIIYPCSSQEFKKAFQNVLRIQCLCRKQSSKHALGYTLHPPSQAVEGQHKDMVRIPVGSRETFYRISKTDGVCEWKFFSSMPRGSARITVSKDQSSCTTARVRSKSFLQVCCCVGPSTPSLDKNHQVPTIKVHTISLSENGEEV
Test name: Functional antagonism of phenylephrine-induced contraction of canine prostate strips
Assay type: cell-based, dog (canine)
Recorded conditions: vs phenylephrine-induced contraction, Schild plot; read-out: pA2 Dog Prostate [α-1A] (converted)
Description: Canine prostate strips were used in vitro as previously described (Hieble, J. P., Boyce, A. J. and Caine, M., Fed. Proc., 45: 2609-2614 (1986)), to determine antagonist potencies against phenylephrine-induced contractions. Functional assays indicative of pharmacologically defined α-1 adrenoceptors were used to further characterize compounds. Inhibition of phenylephrine (PE)-induced contraction of canine prostate smooth muscle can be correlated with α-1A adrenoceptor activation. […]
Counter-ions that a name gives are not always drawn.
Listing of entries alongside the reported log10 Kb.
Parameter value (number): base-10 log of Kb in nM.

Example entries and their recorded answers appear below.
| Compound | log10 Kb |
| --- | --- |
| COc1cccc2c1CC[C@H]1CN(CCn3c(=O)[nH]c4c(C)csc4c3=O)C[C@@H]21 (relative stereo) [Example 2, hydrochloride] | -0.16 |
| COc1cc2c(=O)n(CCN3C[C@@H]4CCc5c(OC)cccc5[C@@H]4C3)c(=O)[nH]c2cc1Cl [Example 49, hydrochloride] | 1.08 |
| COc1cccc2c1CC[C@H]1CN(CCn3c(=O)[nH]c4cc(NS(C)(=O)=O)ccc4c3=O)C[C@@H]21 [Example 76, hydrochloride] | 0.27 |
| COc1cccc2c1CC[C@H]1CN(CCn3c(=O)[nH]c4sc(C)cc4c3=O)C[C@@H]21 (relative stereo) [Example 29, hydrochloride] | 0.09 |
| COc1cccc2c1CC[C@H]1CN(CCn3c(=O)[nH]c4cc(C(=O)N(C)C)ccc4c3=O)C[C@@H]21 [Example 47, hydrochloride] | 0.21 |

Query: Look up log10 Kb: COC(=O)c1ccc2c(=O)n(CCN3C[C@@H]4CCc5c(OC)cccc5[C@@H]4C3)c(=O)[nH]c2c1 (relative stereo) [Example 14, hydrochloride]
Result: -0.01

Query: Continue with COc1cccc2c1CC[C@H]1CN(CCn3c(=O)[nH]c4c(C)c(OC)sc4c3=O)C[C@@H]21 [Example 64, hydrochloride]
Result: 0.19

Query: Can you check COc1cccc2c1CC[C@H]1CN(CCn3c(=O)[nH]c4c(C)c(C)ccc4c3=O)C[C@@H]21 [Example 80, hydrochloride] next?
Result: -0.20

Query: Now this one: COc1cccc2c1CC[C@H]1CN(CCn3c(=O)[nH]c4sccc4c3=O)C[C@@H]21 [Example 13, hydrochloride]
Result: -0.07

Query: Please answer likewise for COc1cccc2c1CC[C@H]1CN(CCn3c(=O)[nH]c4cc5c(cc4c3=O)OCO5)C[C@@H]21 [Example 37, hydrochloride]
Result: -0.62

Query: What about COc1cccc2c1CC[C@H]1CN(CCn3c(=O)[nH]c4ccsc4c3=O)C[C@@H]21 (relative stereo) [Example 5, hydrochloride] ?
Result: -0.16

Query: What about this compound? O=c1[nH]c2sccc2c(=O)n1CCN1C[C@@H]2CCc3c(O)cccc3[C@@H]2C1 (relative stereo) [Example 35, hydrobromide]
Result: 1.94

All figures here come from patent US5792767A.
